# method description: Cytotoxicity against cat CRFK cells assessed as reduction of cell viability
# Format: cell-based, Felis catus
assay endpoint: CC50 (µM)

>>> number("Nc1ncc(Br)c2c1ncn2[C@@H]1C=C(CO)[C@@H](O)[C@H]1O")
94

====

# method description: Selectivity index, ratio of CC50 for human Akata cells to EC50 for Epstein-Barr virus
# Format: toxicity, cell-based
# test conditions: read-out: Selectivity Index
assay endpoint: selectivity ratio

>>> result("Nc1ncc(Br)c2c1ncn2[C@@H]1C=C(CO)[C@@H](O)[C@H]1O")
"< 4.3"

====

# method description: Selectivity index, ratio of CC50 for MDCK cells to EC50 for Influenza A virus H3N2
# Assay type: toxicity, cell-based
# test conditions: dog, read-out: Ratio CC50/EC50
assay endpoint: selectivity ratio

>>> result("Nc1ncc(Br)c2c1ncn2[C@@H]1C=C(CO)[C@@H](O)[C@H]1O")
"> 190"

====

# method description: Selectivity index, ratio of CC50 for african green monkey Vero cells to EC50 for Pichinde virus
# Type: toxicity, cell-based
# test conditions: read-out: Selectivity Index
assay endpoint: selectivity ratio

>>> number("Nc1ncc(Br)c2c1ncn2[C@@H]1C=C(CO)[C@@H](O)[C@H]1O")
24

====

# method description: Cytotoxicity against human HeLa assessed as minimum compound concentration required to cause microscopically detectable alteration of normal cell morphology
# Format: cell-based
# test conditions: HeLa cells, read-out: Activity
assay endpoint: MCC

>>> result("Nc1ncc(Br)c2c1ncn2[C@@H]1C=C(CO)[C@@H](O)[C@H]1O")
"≥ 100 µM"
>>> result("Nc1ncc(Br)c2c1ncn2[C@@H]1C[C@H](CO)[C@@H](O)[C@H]1O")
"> 300 µM"

====

# method description: Cytotoxicity against MDCK cells assessed as reduction of cell viability
# Format: cell-based, Canis lupus familiaris
# test conditions: dog
assay endpoint: CC50 (µM)

>>> number("Nc1ncc(Br)c2c1ncn2[C@@H]1C=C(CO)[C@@H](O)[C@H]1O")
1.1

====

# method description: Selectivity index, ratio of minimum compound concentration required to cause microscopically detectable alteration of normal cell morphology for human HeLa cells to EC50 for Vaccinia virus
# Format: toxicity, cell-based
# test conditions: read-out: Selectivity Index
assay endpoint: selectivity ratio

>>> result("Nc1ncc(Br)c2c1ncn2[C@@H]1C[C@H](CO)[C@@H](O)[C@H]1O")
"> 1.3"

====

# method description: Cytotoxicity against human Akata cells assessed as reduction of cell viability
# Assay type: cell-based
assay endpoint: CC50 (nM)

>>> number("Nc1ncc(Br)c2c1ncn2[C@@H]1C=C(CO)[C@@H](O)[C@H]1O")
130

====

# method description: Selectivity index, ratio of CC50 for african green monkey Vero cells to EC50 for Dengue virus
# Format: toxicity, cell-based
# test conditions: read-out: Selectivity Index
assay endpoint: selectivity ratio

>>> result("Nc1ncc(Br)c2c1ncn2[C@@H]1C[C@H](CO)[C@@H](O)[C@H]1O")
2
>>> result("Nc1ncc(Br)c2c1ncn2[C@@H]1C=C(CO)[C@@H](O)[C@H]1O")
57

====

# method description: Cytotoxicity against HEL assessed as reduction of cell viability
# Assay type: cell-based
# test conditions: human, HEL cells
assay endpoint: CC50 (µM)

>>> number("Nc1ncc(Br)c2c1ncn2[C@@H]1C[C@H](CO)[C@@H](O)[C@H]1O")
80

====

# method description: Selectivity index, ratio of CC50 for MDCK cells to EC50 for Influenza A virus H1N1
# Type: toxicity, cell-based
# test conditions: dog, read-out: Ratio CC50/EC50
assay endpoint: selectivity ratio

>>> result("Nc1ncc(Br)c2c1ncn2[C@@H]1C=C(CO)[C@@H](O)[C@H]1O")
"> 2340"

====

# Tested on: Influenza A virus
# method description: Antiviral activity against Influenza A virus H1N1 infected in MDCK cells assessed as reduction of viral replication
# Type: functional, organism-based
We begin with a simple list: items and their reported EC50.
assay endpoint: EC50

>>> result("Nc1ncc(Br)c2c1ncn2[C@@H]1C[C@H](CO)[C@@H](O)[C@H]1O")
"> 290 µM"
>>> result("Nc1ncc(Br)c2c1ncn2[C@@H]1C=C(CO)[C@@H](O)[C@H]1O")
"< 0.094 µM"

====

# method description: Selectivity index, ratio of CC50 for cat CRFK cells to EC50 for Feline herpesvirus
# Format: toxicity, cell-based
# test conditions: read-out: Selectivity Index
assay endpoint: selectivity ratio

>>> number("Nc1ncc(Br)c2c1ncn2[C@@H]1C=C(CO)[C@@H](O)[C@H]1O")
470
